Answer each item with its documented composite z-score.
tested on: XIP peptide (Xip251-270) binding; assay: small-molecule binders of XIP peptide, primary screen, biochemical, small-molecule microarray, fluorescence 635/667 nm, 0.1 µg/mL protein (AID 1182); details: fluorescent protein binding, 635 nm, higher = more signal, called active from +8 up or from −8 down
Active and inactive are the calls of the source.

Examples with answers:
COMPOUND | composite z-score
CO[C@H]1COC(=O)CC=C[C@H](C)[C@@H](OC)COC(=O)CC=C[C@@H]1C | 0.878 (inactive)
C=CC[C@]1(C(N)=O)N=C(c2ccc(OCCCO)cc2)O[C@H]1c1ccccc1CN=[N+]=[N-] | 0.914 (inactive)
O=C1C[C@@](C(=O)NCCN2CCOCC2)(c2ccc([N+](=O)[O-])cc2)[C@@H](c2ccc(CO)cc2)N1C1CCCCC1 | 1.01 (inactive)
CN1C(=O)C2C=CC(C(O)C3CC=CCC3)N(Nc3ccccc3)C2C1=O (centres undefined) | 0.769 (inactive)
C=CCN(C(=O)C1N(c2ccc(CCO)cc2)C(=O)C2C(C(=O)O)C3C=CC21O3)C(C)(C)C (centres undefined) | 0.865 (inactive)

Hi, could you look up composite z-score for each item in my list?
1. Cc1ccc(S[C@]2(C(=O)NC(C)C)CC(=O)N(C3Cc4ccccc4C3)[C@@H]2c2ccc(CO)cc2)cc1
2. COc1cc([C@@H]2N[C@H](C(=O)O)Cc3c2[nH]c2ccccc32)cc(OC)c1OC
3. O=C(NCc1ccccc1)[C@@]1(CCS(=O)(=O)c2ccccc2)COC(c2ccc(OCCCO)cc2)=N1
4. CC(=O)NCCCC[C@@H]1NC(=O)[C@@H]2C[C@H](C(=O)NCCCCCCN(C)C)[C@H](c3ccc(O)cc3)N2C1=O
5. COc1ccc([Si](C)(C)[C@@H]2[C@@H](CCO)O[C@]3(C(=O)N(Cc4ccccc4)c4ccccc43)[C@H]2C)cc1
6. CCCNC(=O)[C@@]1(Sc2ccc(C)cc2)CC(=O)N(Cc2ccccc2Cl)[C@@H]1c1ccc(CO)cc1
7. COc1ccc([Si](C)(C)[C@H]2[C@H](CCO)O[C@@]3(C(=O)N(Cc4ccccc4)c4ccc(N5C(=O)c6cccc7cccc5c67)cc43)[C@@H]2C)cc1

Response:
1: 0.137 (inactive); 2: -0.374 (inactive); 3: 1.13 (inactive); 4: 1.9 (inactive); 5: 0.151 (inactive); 6: 0.266 (inactive); 7: 1.25 (inactive)

I need composite z-score for every entry listed below, if you could help.
1. COc1cc(CO)cc(I)c1O[C@H]1C=C(C(=O)NCCO)C[C@@H](NCCc2c[nH]c3ccccc23)[C@@H]1O
2. CC(C)CN1C(=O)[C@@]2(Cc3ccccc31)c1ccccc1C(=O)N(C1CCCCC1)[C@H]2c1ccc(CO)cc1

Response:
1: -0.26 (inactive); 2: 1.15 (inactive)
